- tested-target: Lysine-specific demethylase 4A (Homo sapiens)
- method: qHTS Assay for Inhibitors of JMJD2A-Tudor Domain; also: nearly all actives have a fitted effect of over 50% in size
- experimental-conditions: AlphaScreen JMJD2A-Tudor / H3K4me3 peptide binding; series mostly up to 114 µM
Out of some 390,000 compounds screened, about 17,000 (4.4%) were called active. Roughly 8% stayed inconclusive and do not appear here. Calls follow the shape of the dose curve; as a rule, active = well fitted inhibition curve with a large enough effect; inconclusive = small, poorly fitted or top-dose-only effect; inactive = no such curve, though single readings can be large or run the other way. Shown is part of a subset that was picked to be rich in actives.
Allowed answers: active, inactive

Answered examples (10):
> print(dat)
                                    compound  assigned.class
 1  CCCCC(CC)CNC(=O)C1CCN(S(=O)(=O)c2cccc3nsnc23)CC1 (stereo unspecified)        inactive
 2  CCOC(=O)c1c(C)[nH]c(C)c1S(=O)(=O)N(C)CC(=O)N1CCN(c2ccccc2)CC1        inactive
 3   O=C(Cn1cc(SCc2ccccc2)c2ccccc21)N1CCCCC1        inactive
 4  O=c1c2ccccc2c(-c2ccc(F)cc2)nn1-c1ccc(C(F)(F)F)cc1        inactive
 5   CC(C)(C)C(=O)OCc1nc(-c2ccc(O)c(O)c2)cs1          active
 6  Cc1cccc(N2CCN(C(=O)c3ccc(Nc4nc5ccccc5n5nnnc45)cc3)CC2)c1C        inactive
 7  Cc1cccc(NC(=O)Cn2c(=O)n(CCC(C)C)c(=O)c3cccnc32)c1        inactive
 8      Cc1cc(C(F)(F)F)nc(SCC(=O)Nc2nccs2)n1        inactive
 9  COc1ccc2c(c1)c(=O)c(C(=O)c1ccccc1)cn2CC(=O)Nc1ccc2c(c1)OCCO2        inactive
10  CCCOc1ccc(C(=O)Nc2ccc3oc(-c4cccc(Cl)c4Cl)nc3c2)cc1        inactive

Ask: # lookup: test call for CCOc1ccc(CC(=O)NC2CCN(Cc3ccccc3)CC2)cc1
Reply: inactive

Ask: # lookup: test call for COc1cccc(N2CCN(S(=O)(=O)c3cc(Br)cc4c3N(C(=O)C3CC3)CC4)CC2)c1
Reply: inactive

Ask: # lookup: test call for CC(C)n1c(=S)[nH]c2cc(C(F)(F)F)ccc21
Reply: inactive

Ask: # lookup: test call for COc1ccc(OC)c(NC(=O)CN(C)CCOc2ccc(Br)cc2)c1
Reply: inactive

Ask: # lookup: test call for COc1cc(NC(=O)c2cc(C3CC3)nc3c2c(C)nn3-c2ccccc2)cc(OC)c1
Reply: inactive

Ask: # lookup: test call for COc1cc(CN(C(=O)c2ccccc2Br)c2ccccn2)cc(OC)c1OC
Reply: inactive

Ask: # lookup: test call for O=C(O)CCC(=O)NCc1ccc(C(=O)O)cc1
Reply: inactive

Ask: # lookup: test call for COc1ccc(S(=O)(=O)c2c(Nc3ccc(C)cc3)sc(C(=O)c3ccc(C)cc3)c2N)cc1
Reply: inactive

Ask: # lookup: test call for Cc1ccccc1CS(=O)(=O)CC1Nc2ccc(C(=O)NCc3ccc(Cl)cc3)cc2NC1=O (stereo unspecified)
Reply: inactive

Ask: # lookup: test call for CC1=C/C(=N\OS(=O)(=O)c2ccccc2)C=CC1=O
Reply: active

Ask: # lookup: test call for COc1cc(/C=N/NC(=S)Nc2cccnc2)cc(OC)c1O
Reply: inactive

Ask: # lookup: test call for COCCn1c(CCC(=O)Nc2cc(C)ccc2C)nc2cccnc21
Reply: inactive

Ask: # lookup: test call for CCOc1ccc2nc(N3CCCC(C(=O)Nc4cc(C)ccc4C)C3)sc2c1 (stereo unspecified)
Reply: inactive

Ask: # lookup: test call for COc1ccc(N(C)C(=O)C2CCN(S(=O)(=O)c3cc(Br)cc4c3N(C(C)=O)CC4)CC2)cc1
Reply: inactive

Ask: # lookup: test call for NS(=O)(=O)c1ccc(NC(=O)C(=O)Nc2ccc3nc4n(c(=O)c3c2)CCCCC4)cc1
Reply: inactive

Ask: # lookup: test call for COc1cc(/C=N/Nc2ccc(C)cc2)cc(Br)c1O
Reply: active

Ask: # lookup: test call for CN(C)CCOc1cccc(Br)c1
Reply: active

Ask: # lookup: test call for Cc1ccccc1CNC(=O)Cn1c(C)c2cnn(-c3ccccc3)c(=O)c2c1C
Reply: inactive

Ask: # lookup: test call for O=C(O)c1ccc(Cn2cnc3c(=S)nc[nH]c32)cc1
Reply: active

Ask: # lookup: test call for CSCc1nnc(NC(=O)c2ccc(S(=O)(=O)N3CCCCC3C)cc2)o1 (stereo unspecified)
Reply: active

Ask: # lookup: test call for CCOc1ccc(NC(=O)CCC(=O)N2CC(C)Oc3ccc(C)cc32)cc1 (stereo unspecified)
Reply: inactive

Ask: # lookup: test call for COc1ccc(OCC(=O)OCCN(C)C)cc1
Reply: inactive

Ask: # lookup: test call for Cc1nn(-c2ccc(N3CCCCC3)nn2)c(C)c1CCC(=O)NCc1ccccc1F
Reply: inactive

---

- tested-target: Lysine-specific demethylase 4A (Homo sapiens)
- method: qHTS Assay for Inhibitors of JMJD2A-Tudor Domain; also: nearly all actives have a fitted effect of over 50% in size
- experimental-conditions: AlphaScreen JMJD2A-Tudor / H3K4me3 peptide binding; series mostly up to 114 µM
- Excerpt: JMJD2A is a jumonji-domain-containing lysine demethylase that uses Fe(II) together with 2-OG to effect oxidative demethylation of histones. Methylation is one of many […] modification that affect epigenetic transcription. […] A quantitative high throughput AlphaScreen has been developed to identify small molecule inhibitors based on a protocol published by NCGC and SGC [4]. […] [2] Yasgar, et al. Compound Management for Quantitative High-Throughput Screening. […]
Screen size: about 390,000 compounds; about 17,000 (4.4%) were called active. About 8% were inconclusive and are not listed. Calls follow the shape of the dose curve; as a rule, active = well fitted inhibition curve with a large enough effect; inconclusive = small, poorly fitted or top-dose-only effect; inactive = no such curve, though single readings can be large or run the other way. Only a selection was taken, and actives are over-represented in it overall.
Allowed answers: class 1 (active), class 0 (inactive)

Answered examples (8):
> print(dat)
                                   molecule                             tested.target  assigned.class
1  O=C1Nc2ccc(Br)cc2/C1=N/N=C/C1=C(N2CCOCC2)C(=C\c2ccccc2)/CC1  Lysine-specific demethylase 4A (Homo sapiens)         class 1
2  CCCCc1nn2c(=O)cc(COC(=O)c3ccccc3NC(=O)C(C)(C)C)nc2s1  Lysine-specific demethylase 4A (Homo sapiens)         class 0
3  CCN1CCN(CCNC(=O)c2ccc(/C=C3/Sc4ccccc4N(Cc4cccc(C)c4)C3=O)cc2)CC1  Lysine-specific demethylase 4A (Homo sapiens)         class 1
4  O=C(Nc1ccc(S(=O)(=O)Nc2ccccn2)cc1)c1ccccc1  Lysine-specific demethylase 4A (Homo sapiens)         class 0
5  CC1(C)CC(N2CCN(C(c3ccccc3)c3ccccc3)CC2)=CC(=[N+]2CCCCC2)C1  Lysine-specific demethylase 4A (Homo sapiens)         class 1
6  Cc1ccc(N(C)C(=O)C2CCN(S(=O)(=O)c3ccc4c(c3)CCCN4C(=O)C3CCC3)CC2)cc1  Lysine-specific demethylase 4A (Homo sapiens)         class 0
7       COc1ccc(C/C(C)=N/NC(=O)c2ccncc2)cc1  Lysine-specific demethylase 4A (Homo sapiens)         class 1
8          COC(=O)c1sc2ncccc2c1-n1c(C)ccc1C  Lysine-specific demethylase 4A (Homo sapiens)         class 0

Ask: # lookup: test call for O=C(NC1=CC(=O)c2ccccc2C1=O)c1ccccc1
Reply: class 1

Ask: # lookup: test call for C/C(=N/NC(=O)CCc1ccccc1)c1ccco1
Reply: class 0

Ask: # lookup: test call for O=c1cc(-c2ccccc2)n2c(SCc3ccccc3)nnc2[nH]1
Reply: class 0

---

- tested-target: Lysine-specific demethylase 4A (Homo sapiens)
- method: qHTS Assay for Inhibitors of JMJD2A-Tudor Domain; also: nearly all actives have a fitted effect of over 50% in size
- experimental-conditions: AlphaScreen JMJD2A-Tudor / H3K4me3 peptide binding; series mostly up to 114 µM
- From the text: JMJD2A is a jumonji-domain-containing lysine demethylase that uses Fe(II) together with 2-OG to effect oxidative demethylation of histones. Methylation is one of many […] modification that affect epigenetic transcription. […] A quantitative high throughput AlphaScreen has been developed to identify small molecule inhibitors based on a protocol published by NCGC and SGC [4]. […] [2] Yasgar, et al. Compound Management for Quantitative High-Throughput Screening. […]
Screen size: about 390,000 compounds; about 17,000 (4.4%) were called active. Another 8% or so got no clear call; they are omitted. The call rests on the fitted dose curve; in most records, active means well fitted inhibition curve with a large enough effect; inconclusive means small, poorly fitted or top-dose-only effect; inactive means no such curve, though single readings can be large or run the other way. The sample holds actives, similar compounds and a random draw of the others, so the mix is not that of the screen.
Allowed answers: Yes for active, No for inactive

Answered examples (5):
> print(dat)
                                   molecule  assigned.class
1  COCCNC(=O)c1ccc2c(c1)N(Cc1cccc(Cl)c1)C(=O)c1ccccc1S2(=O)=O              No
2  Cn1c(=O)c2c(SCC(=O)N3CCc4ccccc43)nc(-c3ccc(Cl)cc3)nc2n(C)c1=O              No
3  CSc1ncc(Cl)c(C(=O)Nc2ccc(S(=O)(=O)N3CCCC(C)C3)cc2)n1 (configuration not stated)              No
4  CCc1ccc2c(c1)C1(NN=C(c3ccccc3)S1)C(=O)N2 (configuration not stated)             Yes
5  Cc1cc2c(s1)c1cnn(Cc3cc(F)c(Cl)cc3Cl)c(=O)c1n2C              No

Ask: # lookup: test call for Cc1ccccc1Nc1nc(N)nc(CSc2nnc3ccccn23)n1
Reply: No

Ask: # lookup: test call for Cn1c(=O)c2c(n3c4ccccc4nc13)NC(=O)CC2c1cccc(Cl)c1 (configuration not stated)
Reply: No

Ask: # lookup: test call for CC(C)(C)CN1C(=O)C(=O)NC[C@H]1Cc1cccc2ccccc12
Reply: No

Ask: # lookup: test call for Cc1ccc(-n2c(C)cc(/C=C(\C#N)C(=O)NCC3CCCO3)c2C)cc1 (configuration not stated)
Reply: Yes

Ask: # lookup: test call for CN(C)C(=O)c1nc2ccc(Cl)cn2c1CN1CCN(c2ncccn2)CC1
Reply: No

Ask: # lookup: test call for COc1cc(NC(=O)Cn2c(=O)n(Cc3ccco3)c(=O)c3oc4ccccc4c32)cc(OC)c1
Reply: No
